Recorded IC50 for compounds tested on BTK (Homo sapiens, UniProt Q06187), drawn from a number of studies.
Sequence (Q06187 whole entry): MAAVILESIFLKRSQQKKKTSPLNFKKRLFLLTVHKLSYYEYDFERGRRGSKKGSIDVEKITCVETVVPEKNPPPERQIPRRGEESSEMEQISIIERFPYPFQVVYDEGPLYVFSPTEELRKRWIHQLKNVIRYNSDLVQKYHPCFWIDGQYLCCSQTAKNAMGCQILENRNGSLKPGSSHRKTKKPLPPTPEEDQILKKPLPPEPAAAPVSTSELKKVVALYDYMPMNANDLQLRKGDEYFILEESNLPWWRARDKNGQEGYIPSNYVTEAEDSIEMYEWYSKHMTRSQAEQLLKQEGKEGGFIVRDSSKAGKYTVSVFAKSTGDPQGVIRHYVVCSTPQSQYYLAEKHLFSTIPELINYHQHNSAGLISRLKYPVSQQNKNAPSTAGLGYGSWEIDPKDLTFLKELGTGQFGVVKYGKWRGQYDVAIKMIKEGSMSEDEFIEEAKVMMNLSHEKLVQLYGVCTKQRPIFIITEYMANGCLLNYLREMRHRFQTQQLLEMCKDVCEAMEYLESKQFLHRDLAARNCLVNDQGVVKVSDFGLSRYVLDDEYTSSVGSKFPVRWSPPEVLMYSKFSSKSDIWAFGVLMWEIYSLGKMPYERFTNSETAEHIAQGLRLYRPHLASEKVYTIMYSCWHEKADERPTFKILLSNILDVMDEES

See these solved cases before continuing.
- Compound: "CC1CCCCN1S(=O)(=O)c1ccccc1NCC(=O)N[C@@H]1CCCN(c2ncnc3[nH]ncc23)C1 (stereo partly drawn)"
  IC50: "< 100 nM"
- Compound: "CN1CCN(c2cn3nccc3c(-c3ccc(CNC(=O)c4nnc(C(C)(C)C)o4)c(F)c3)n2)CC1"
  IC50: "10 to 1000 nM"
- Compound: "Cc1cc(-c2ccnc(Nc3cnn4c3CCC4)n2)ccc1CNC(=O)N1CC(OC(C)(C)C)C1"
  IC50: "< 10 nM"
- Compound: "O=C(c1ccc(Cl)cc1)c1c[nH]c2nccc(-c3cccnc3)c12"
  IC50: "≤ 10000 nM"
- Compound: "Cn1cc(-c2cn3nccc3c(-c3ccc(CNC(=O)c4ccn(C(C)(C)C)n4)cc3)n2)cn1"
  IC50: "10 to 1000 nM"
- Compound: "CC#CC(=O)N1C(c2nc(-c3ccc(C(C)(O)c4ccccc4)cc3)c3c(N)nccn23)CC2CC21 (stereo not drawn)"
  IC50: "382 nM"
- Compound: "C=CC(=O)Nc1cccc(-c2cc(CN3CCOCC3)cc(Nc3ncns3)n2)c1"
  IC50: "2 nM"
- Compound: "CN(C/C=C/C(=O)N1CCC[C@@H](n2nc(-c3ccc(C(=O)Nc4ccccn4)cc3)c3c(N)ncnc32)C1)C1CC1"
  IC50: "< 100 nM"
- Compound: "[2H]C([2H])([2H])N(C(=O)C=C)c1cccc(Nc2ncc3cc(-c4c(C)cc[nH]c4=O)ccc3n2)c1"
  IC50: "< 100 nM"
- Compound: "Cc1cc(-c2nc(-c3cnn(C)c3)cc3nccn23)ccc1CN1Cc2nc(C(C)(C)C)sc2C1=O"
  IC50: "< 1 nM"

# lookup: Cc1nc(-c2ccnc(Nc3cnn(C)c3)c2)ccc1CNC(=O)c1cnc(C(C)(C)C)s1 on BTK (Homo sapiens, UniProt Q06187), IC50 = 10 to 99 nM

Value sought: IC50, system BTK (Homo sapiens, UniProt Q06187), item C=CC(=O)N1CCC[C@H](Nc2nccc(Nc3nc4ccc(Oc5ccccc5)nc4s3)n2)C1 . Result: 19.4 nM

# IC50 measured on BTK (Homo sapiens, UniProt Q06187) for item Cc1cc(NC(=O)/C=C/CN(C)C2CC2)cc(-n2c(=O)n(-c3ccc(Oc4ccccc4)cc3)c3c(N)ncnc32)c1 = < 100 nM

Item C=CC(=O)N1CC[C@]2(C1)C[C@H](n1c(NC(=O)c3ccc(-c4cncc(NC)n4)s3)nc3ccccc31)C2 was tested on BTK (Homo sapiens, UniProt Q06187); the reported IC50 is 0.54 nM

// assay BTK (Homo sapiens, UniProt Q06187), entry O=C(CNc1cc(Cl)cc(Cl)c1)N1CC(Nc2ncnc3[nH]ncc23)Cc2ccccc21 (stereo not drawn) , IC50 value = 100 to 999 nM

---

Values of IC50 for BTK (Homo sapiens, UniProt Q06187), collected from a number of published sources:

- Molecule: "C=CC(=O)N1CC[C@@H](Nc2nc(Nc3cc(C)ns3)nc3ccoc23)C1"
  Tested Target: "BTK (Homo sapiens, UniProt Q06187)"
  Measurement Kind: "IC50"
  Result: "≤ 50 nM"
- Molecule: "Cc1cc(-c2ccnc(Nc3cnn(C[C@@H](N)C(=O)O)c3)n2)ccc1CNC(=O)c1cnc(C(C)(C)C)s1"
  Tested Target: "BTK (Homo sapiens, UniProt Q06187)"
  Measurement Kind: "IC50"
  Result: "< 10 nM"
- Molecule: "C=CC(=O)Nc1cccc(Oc2c(Cl)cnc3[nH]c(-c4ccc(CN5CCOCC5)cc4)nc23)c1"
  Tested Target: "BTK (Homo sapiens, UniProt Q06187)"
  Measurement Kind: "IC50"
  Result: "50 to 100 nM"
- Molecule: "Cn1cc(Nc2nccc(-c3ccc4c(c3)CCCC[C@H]4NC(=O)N3CC(OC(C)(C)C)C3)n2)cn1"
  Tested Target: "BTK (Homo sapiens, UniProt Q06187)"
  Measurement Kind: "IC50"
  Result: "< 10 nM"
- Molecule: "COCCN(C)C/C=C/C(=O)N1CC[C@@H](n2c(C3CC3)c(-c3ccc(Oc4ccccc4)cc3)c3c(N)ncnc32)C1"
  Tested Target: "BTK (Homo sapiens, UniProt Q06187)"
  Measurement Kind: "IC50"
  Result: "< 100 nM"
- Molecule: "CCN(CC)S(=O)(=O)c1ccccc1NCC(=O)N[C@@H]1CCCN(c2ncnc3[nH]ncc23)C1"
  Tested Target: "BTK (Homo sapiens, UniProt Q06187)"
  Measurement Kind: "IC50"
  Result: "< 100 nM"

The measured IC50 that CC(=O)Nc1cc(N2CCC[C@@H](NC(=O)CNc3cc(Cl)cc(Cl)c3)C2)ncn1 showed for BTK (Homo sapiens, UniProt Q06187) is 1000 to 10000 nM

Reported IC50 (BTK (Homo sapiens, UniProt Q06187)) for entry C=CC(=O)N1CCC(n2nc(-c3ccc(Oc4ccccc4)cc3)c3c(N)ncc(I)c32)CC1 is 7.7 nM
